Would you mind telling me the reported residual activity of each entry?
measurementTarget: PAK7 (human) (UniProt Q9P286)
Sequence (Q9P286 whole entry, looked up): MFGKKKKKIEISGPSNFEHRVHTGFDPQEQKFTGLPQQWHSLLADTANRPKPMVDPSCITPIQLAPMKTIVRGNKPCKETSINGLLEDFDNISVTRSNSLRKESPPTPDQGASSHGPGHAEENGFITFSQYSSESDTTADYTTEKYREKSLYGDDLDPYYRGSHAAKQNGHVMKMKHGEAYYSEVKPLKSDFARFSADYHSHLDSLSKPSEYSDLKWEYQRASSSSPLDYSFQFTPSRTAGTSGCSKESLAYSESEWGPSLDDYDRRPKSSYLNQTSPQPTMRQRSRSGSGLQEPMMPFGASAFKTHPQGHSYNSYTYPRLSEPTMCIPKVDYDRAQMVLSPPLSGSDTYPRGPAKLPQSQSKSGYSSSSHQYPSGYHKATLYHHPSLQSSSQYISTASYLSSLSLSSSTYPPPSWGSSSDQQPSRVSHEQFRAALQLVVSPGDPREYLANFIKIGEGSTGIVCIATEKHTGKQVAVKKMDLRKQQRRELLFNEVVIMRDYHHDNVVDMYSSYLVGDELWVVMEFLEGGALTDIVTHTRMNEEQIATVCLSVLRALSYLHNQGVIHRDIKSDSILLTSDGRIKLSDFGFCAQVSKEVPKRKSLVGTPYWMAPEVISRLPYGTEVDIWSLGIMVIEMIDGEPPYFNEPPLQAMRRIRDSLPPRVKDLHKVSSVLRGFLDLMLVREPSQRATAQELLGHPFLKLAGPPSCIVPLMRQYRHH
method: radiometric filter-binding kinase assay, Kinase HotSpot
protocolConditions: compound 0.5 µM; ATP 10 µM
Answer with a number only, understood to be in %.

Lookup: Report residual activity for CCN(CC)CCCCN1c2ccccc2Oc2ccc(Cl)cc21 please.
Found: 116

Lookup: # residual activity lookup, item COc1cc2ncnc(N3CCN(C(=O)Nc4ccc(Oc5ccccc5)cc4)CC3)c2cc1OC
Found: 96.8

Lookup: What does the data say about its residual activity? Entry: CC(C)[C@H](CO)Nc1nc(Nc2cc(N)cc(Cl)c2)c2ncn(C(C)C)c2n1
Found: 44.3

Lookup: Can you share its residual activity? I mean this compound: Oc1ccc(Nc2nc(-c3ccc(Cl)cc3)cs2)cc1
Found: 105

Lookup: Look up residual activity: O=C1NC(=O)C(c2c[nH]c3ccccc23)=C1c1c[nH]c2ccccc12
Found: 104

Lookup: Sample O=C(Nc1cccc(Nc2cc(Nc3cccc(C(F)(F)F)c3)ncn2)c1)C1CC1 — what was its residual activity?
Found: 97.5

Lookup: # input compound: O=C1Nc2ccccc2/C1=C1\Nc2ccccc2\C1=N/O ; wanted: its residual activity
Found: 89.3

Lookup: Which measured residual activity value corresponds to O=C(CCCc1ccc(-c2ccccc2F)cc1)Nc1ccc(O)cc1 ?
Found: 90.3

Lookup: Param item = O=C1NC(=O)C(c2cn(CCCO)c3ncccc23)=C1c1cnccn1 ; retrieve measured residual activity.
Found: 88.2

Lookup: If you can, please state the reported residual activity value of O=C1Nc2ccccc2/C1=C1/Nc2ccccc2/C1=N\OCCC(O)CO (stereo unspecified) .
Found: 81

Lookup: What value of residual activity has been recorded for this entry: Cn1sc(=O)n(Cc2ccccc2)c1=O
Found: 81.1

----------
measurementTarget: MAPK1 (human) (UniProt P28482)
Sequence (P28482 whole entry, looked up): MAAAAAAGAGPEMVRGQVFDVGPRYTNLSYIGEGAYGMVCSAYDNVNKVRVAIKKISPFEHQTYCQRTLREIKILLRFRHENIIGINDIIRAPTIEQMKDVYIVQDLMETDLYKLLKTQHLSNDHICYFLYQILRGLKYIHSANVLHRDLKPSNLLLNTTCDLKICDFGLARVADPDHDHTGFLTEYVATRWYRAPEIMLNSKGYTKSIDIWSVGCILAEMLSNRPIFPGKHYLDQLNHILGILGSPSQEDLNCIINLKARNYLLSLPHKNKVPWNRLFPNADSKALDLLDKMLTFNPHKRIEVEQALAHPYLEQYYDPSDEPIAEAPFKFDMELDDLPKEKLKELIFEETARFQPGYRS
method: radiometric filter-binding kinase assay, Kinase HotSpot
protocolConditions: compound 0.5 µM; ATP 10 µM
quantityKind: residual activity
Give the number first and the unit second.

Lookup: Give its residual activity value. Item: CCn1cnc2c(Nc3cccc(Cl)c3)nc(N[C@@H]3CCCC[C@@H]3N)nc21
Found: 91.7%

Lookup: Field request: residual activity | item: CC(C)[C@H](CO)Nc1nc(Nc2cc(N)cc(Cl)c2)c2ncn(C(C)C)c2n1
Found: 95.4%

Lookup: Name the recorded residual activity for Cn1nc2c3c(cccc31)C(=O)c1ccccc1-2 .
Found: 91.7%

Lookup: Requested read-out: residual activity. Entry: Nc1nccc(-c2c(-c3ccc(F)cc3)ncn2C2CCNCC2)n1
Found: 96.6%

Lookup: Suppose we examine the compound CN(C)C[C@H]1CCn2c(c(C3=C(c4cn(C)c5ccccc45)C(=O)NC3=O)c3ccccc32)C1 ; what residual activity value has been reported?
Found: 101%

----------
measurementTarget: MET (human)
method: radiometric filter-binding kinase assay, Kinase HotSpot
protocolConditions: compound 0.5 µM; ATP 10 µM
Can you tell me residual activity for the items I'm about to list?
Reply with just the number (in %).

Lookup: Would you mind telling me what residual activity value was observed for CC(C)c1nn(-c2c(Cl)cccc2Cl)c2nc(Cc3ccc(OCCO)cc3)nc(O)c12 ?
Found: 91

Lookup: I would be grateful if you could share the reported residual activity for O=C(CCCc1ccc(-c2ccccc2F)cc1)Nc1ccc(O)cc1 .
Found: 114

Lookup: Form field: reported residual activity of COc1ccc(CNC(=O)Nc2ncc([N+](=O)[O-])s2)cc1
Found: 85.5

Lookup: Consider the compound shown here: COc1ccc(OC)c2c(=S)c3ccccc3[nH]c12 What is its recorded residual activity?
Found: 99.2

Lookup: Can you look up the measured residual activity of Cn1cnc2cc3c(Nc4cccc(Br)c4)ncnc3cc21 for me?
Found: 101

Lookup: Look up residual activity: O=C1NC(=O)/C(=C\c2ccc3nccnc3c2)S1
Found: 91.2

Lookup: Could you share which residual activity value was measured for Nc1nnc2[nH]c3ccccc3nc1-2 ?
Found: 90.1

Lookup: Item under review: CN(C)C[C@H]1CCn2c(c(C3=C(c4cn(C)c5ccccc45)C(=O)NC3=O)c3ccccc32)C1 . Reported residual activity?
Found: 96.2

Lookup: GET /values?readout=residual activity&item= Cn1nc2c3c(cccc31)C(=O)c1ccccc1-2
Found: 107

Lookup: Entry CC(=O)O/N=C1\C(=C2\C(=O)Nc3cc(Br)ccc32)Nc2ccccc21 : reported residual activity = ?
Found: 98.2

Lookup: Consider the compound COc1cc2ncnc(N3CCN(C(=O)Nc4ccc(Oc5ccccc5)cc4)CC3)c2cc1OC and give its measured residual activity.
Found: 107

Lookup: Name the reported residual activity value associated with the compound O=C1Nc2ccccc2/C1=C1/Nc2ccccc2/C1=N\OCCC(O)CO (stereo not given)
Found: 123

Lookup: Param item = CCN(CC)CCCCN1c2ccccc2Oc2ccc(Cl)cc21 ; retrieve measured residual activity.
Found: 105

Lookup: What measured residual activity goes with O=C1NC(=O)C(c2cn(CCCO)c3ncccc23)=C1c1cnccn1 ?
Found: 121

Lookup: Sample CC(C)[C@H](CO)Nc1nc(Nc2cc(N)cc(Cl)c2)c2ncn(C(C)C)c2n1 — what was its residual activity?
Found: 109

Lookup: So what's the measured residual activity for this one? Cn1sc(=O)n(Cc2ccccc2)c1=O
Found: 64.2

Lookup: Which residual activity is reported for this compound? CCn1cnc2c(Nc3cccc(Cl)c3)nc(N[C@@H]3CCCC[C@@H]3N)nc21
Found: 102

Lookup: Dear colleague, I am looking for the recorded residual activity of the following compound: O=C(Nc1cccc(Nc2cc(Nc3cccc(C(F)(F)F)c3)ncn2)c1)C1CC1
Found: 103

Lookup: Report residual activity for O=C1Nc2ccccc2/C1=C1\Nc2ccccc2\C1=N/O please.
Found: 110

Lookup: Value lookup for residual activity; key = CN([C@@H](Cc1ccc(OS(=O)(=O)c2cccc3cnccc23)cc1)C(=O)N1CCN(c2ccccc2)CC1)S(=O)(=O)c1cccc2cnccc12
Found: 114

Lookup: Data request, read-out residual activity, for Cc1nc2cc3nc(-c4cccs4)cnc3cc2n1C
Found: 111

Lookup: For the compound shown here, Oc1ccc(Nc2nc(-c3ccc(Cl)cc3)cs2)cc1 , give the reported residual activity.
Found: 99.4

Lookup: Which residual activity reading was recorded for the compound COc1cc2ncc(-c3ccccc3)nc2cc1OC ?
Found: 92.6

Lookup: Entry O=C(O)/C=C/c1cc(Br)c(Br)c(Br)c1Br has what residual activity?
Found: 84.5

Lookup: What does the record list as residual activity for Nc1nccc(-c2c(-c3ccc(F)cc3)ncn2C2CCNCC2)n1 ?
Found: 104
